system-tested: human PPARγ (hPPARγ) (Homo sapiens, UniProt P37231)
Sequence (P37231 238-503 limits assumed): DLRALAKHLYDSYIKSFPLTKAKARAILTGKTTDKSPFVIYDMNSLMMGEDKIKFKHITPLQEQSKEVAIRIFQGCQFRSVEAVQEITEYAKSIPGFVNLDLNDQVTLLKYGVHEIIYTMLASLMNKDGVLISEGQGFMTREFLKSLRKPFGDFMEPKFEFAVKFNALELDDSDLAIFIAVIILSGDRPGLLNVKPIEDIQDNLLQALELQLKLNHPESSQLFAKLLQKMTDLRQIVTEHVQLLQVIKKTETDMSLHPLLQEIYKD
assay-explanation: cell-based
condition-details: PPARγ EC50, GAL4-PPARγ transactivation, HepG2 cells
parameter: pEC50
Entry type: numeric. Quantity: pEC50, the -log10 of concentration in molar units.

Consider the reported pEC50 for these molecules:
molecule	system-tested	measured-result
C[C@@](Oc1ccc(Br)cc1)(C(=O)O)c1ccccc1 [(S)-11]	human PPARγ (hPPARγ) (Homo sapiens, UniProt P37231)	5.41
C[C@](Oc1ccc(-c2ccccc2)cc1)(C(=O)O)c1ccccc1 [(R)-5]	human PPARγ (hPPARγ) (Homo sapiens, UniProt P37231)	5.10
CCC(C)(Oc1ccc(-c2ccccc2)cc1)C(=O)O (centres unmarked)	human PPARγ (hPPARγ) (Homo sapiens, UniProt P37231)	4.89

Bench note: what pEC50 did CC(Cc1ccccc1)(Oc1ccc(Cl)cc1)C(=O)O (centres unmarked) show?
5.30

CC(Cc1ccccc1)(Sc1ccc(Cl)cc1)C(=O)O (centres unmarked) , same question.
4.94
